- test_target: GABARAPL1 WT (UniProt Q9H0R8 1-117)
- Sequence (Q9H0R8 whole entry): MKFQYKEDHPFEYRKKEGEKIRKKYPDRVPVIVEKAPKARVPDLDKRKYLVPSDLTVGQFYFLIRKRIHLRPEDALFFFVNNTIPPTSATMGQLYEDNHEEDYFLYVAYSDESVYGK
- method: ITC; peptide in the syringe (0.5 mM) titrated into 200 µl of the Atg8 homologue in the cell at a 10 times lower concentration; MicroCal iTC200, 25 °C, stirring at 1000 rpm; single-site binding model; N fixed to 1.0 when the fitting was not convergent due to weak interaction; errors are fitting errors
- test_context: both partners purified

binder	Kd / µM
ESPFEVIIDKAAFDKEFKDSY (numbers count on: isoform e; Tyr attached to the C terminus for quantification by absorbance at 280 nm; source: synthetic peptide) [RTN3245-264 peptide]	5
